- methodSummary: Equilibrium solubility of 4-iodo-3-nitrobenzamide, overnight at 25° C., measured by HPLC
- Assay type: physicochemical
- experimentalParameters: purified water containing mixtures of solubilizers, 25 °C, aqueous with cosolvent or surfactant or cyclodextrin, thermodynamic from solid, 10% EtOH/40% PEG 400, 25° C.; read-out: Solubility
measuredParameter: solubility (µg/mL)
The figure you give is taken to be in µg/mL; do not add the unit.

Q: Please report the measured solubility for NC(=O)c1ccc(I)c([N+](=O)[O-])c1 [BA, 4-iodo-3-nitrobenzamide]
A: 3420

----------
- methodSummary: Equilibrium solubility of 4-iodo-3-nitrobenzamide, overnight at 25° C., measured by HPLC
- Assay type: physicochemical
- experimentalParameters: 5% glucose (5GW), 25 °C, saline or isotonic, thermodynamic from solid, 5% Glucose (5GW), 25° C.; read-out: Solubility
measuredParameter: solubility (µg/mL)
The figure you give is taken to be in µg/mL; do not add the unit.

Q: Please report the measured solubility for NC(=O)c1ccc(I)c([N+](=O)[O-])c1 [BA, 4-iodo-3-nitrobenzamide]
A: 173
